- TGT: UniProt:P00734
Counter-ions that a name gives are not always drawn.
Checkbox rule: Ki lower than 0.03 µM = True; Ki not lower than 0.03 µM = False.

Worked set:
COMPOUND | CLASS LABEL
CC(C)(C)[C@@H](O)C(=O)N1CCSC[C@H]1C(=O)NCc1cc(Cl)ccc1CN [Example 5, trifluoroacetate salt] | True
CN1CCN(C(=O)[C@H](O)C(C)(C)C)[C@H](C(=O)NCc2cc(Cl)ccc2CN)C1 [Example 3, trifluoroacetate salt] | False
CC(C)(C)[C@@H](O)C(=O)N1CCS(=O)(=O)C[C@H]1C(=O)NCc1cc(Cl)ccc1CN [Example 7, trifluoroacetate salt] | False
CC(C)(C)[C@@H](O)C(=O)N1CCOC[C@H]1C(=O)NCc1cc(Cl)ccc1CN [Example 4, trifluoroacetate salt] | False
CC(C)(C)[C@@H](O)C(=O)N1CCCC[C@H]1C(=O)NCc1cc(Cl)ccc1CN [Example 1, trifluoroacetate salt] | True
CC(C)(C)[C@@H](O)C(=O)N1CC[S+]([O-])C[C@H]1C(=O)NCc1cc(Cl)ccc1CN (stereo partly shown) [Example 6] | False

Confirm or reject: Ki of CC(C)(C)[C@@H](O)C(=O)N1CCNC[C@H]1C(=O)NCc1cc(Cl)ccc1CN [Example 2, bis trifluoroacetate salt] lies strictly below 0.03 µM
False
